Test system: Arabidopsis pls mutant seedlings (primary root length)
Assay: Hydroponic peptide feeding: rescue of short primary root of pls mutant
Format: in vivo, Arabidopsis thaliana
Settings: 50 nM peptide, hydroponic, 10 days, n = 25 (Figure 2C)
observation.type: rescue of root growth of pls seedlings

• N1: N-terminal 22 amino acids of Arabidopsis PLS (MKPRLCFNFRRRSISPCYISIS; UniProt Q8LLV8 1-22, looked up, fragment) = rescued root growth
• PLS(FL): full-length 36-amino-acid PLS peptide from Arabidopsis (MKPRLCFNFRRRSISPCYISISYLLVAKLFKLFKIH) = rescued root growth
